Property: IC50; scope: individual compounds
tgt: PAD4 enzyme (Homo sapiens)
Construct: PAD4 enzyme was diluted to 30 nM in Assay Buffer
Sequence (Q9UM07 whole entry): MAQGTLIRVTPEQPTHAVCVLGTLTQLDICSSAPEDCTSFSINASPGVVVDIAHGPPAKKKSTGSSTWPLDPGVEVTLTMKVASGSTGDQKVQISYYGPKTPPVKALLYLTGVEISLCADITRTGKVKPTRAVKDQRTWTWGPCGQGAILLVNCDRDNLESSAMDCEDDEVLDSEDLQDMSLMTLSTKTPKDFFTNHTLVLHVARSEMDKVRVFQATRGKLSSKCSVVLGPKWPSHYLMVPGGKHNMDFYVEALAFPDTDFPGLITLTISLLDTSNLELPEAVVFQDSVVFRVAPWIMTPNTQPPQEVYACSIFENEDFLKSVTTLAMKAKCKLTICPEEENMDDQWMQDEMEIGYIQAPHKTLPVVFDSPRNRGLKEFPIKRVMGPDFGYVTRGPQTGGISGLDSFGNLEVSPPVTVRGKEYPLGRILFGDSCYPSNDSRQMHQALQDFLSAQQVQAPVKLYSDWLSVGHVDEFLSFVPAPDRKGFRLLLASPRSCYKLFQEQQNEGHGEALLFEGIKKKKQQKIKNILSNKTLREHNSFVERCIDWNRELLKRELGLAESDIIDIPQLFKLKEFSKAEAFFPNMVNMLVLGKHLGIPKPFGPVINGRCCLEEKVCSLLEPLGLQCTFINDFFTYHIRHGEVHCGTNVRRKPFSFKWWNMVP
methodSummary: In-vitro measurement for enzymatic PAD4 citrullination inhibition activity (ammonia release)
Type: biochemical
appliedConditions: read-out: IC50 of inhibition enzymatic activity of PAD4 (Colorimetric assays, Nature Chemical Biology, 2015, 11: 189-191)

Examples with answers:
[
  {
    "chemicalString": "COc1cc(C(=O)N2C[C@H](N)CC[C@@H]2C)cc2nc(-c3cc4[se]c(-c5ccc(C)cc5)nc4n3CC3CC3)n(C)c12",
    "IC50": "> 500 nM"
  },
  {
    "chemicalString": "COc1cccc(Cn2c(-c3nc4cc(C(=O)N5C[C@H](N)CC[C@@H]5C)cc(OC)c4n3C)cc3[se]c(C)nc32)c1",
    "IC50": "100 to 500 nM"
  },
  {
    "chemicalString": "COc1cc(C(=O)N2C[C@H](N)C[C@@H](F)C2)cc2nc(-c3cc4[se]c(-c5ccccn5)cc4n3CC3CC3)n(C)c12",
    "IC50": "100 to 500 nM"
  },
  {
    "chemicalString": "COc1cc(C(=O)N2CCC[C@@H](N)C2)cc2nc(-c3cc4[se]c(C)nc4n3CC3CC3)n(C)c12",
    "IC50": "≤ 50 nM"
  }
]

Entry COc1cc(C(=O)N2C[C@H](N)CC[C@@H]2C)cc2nc(-c3cc4[se]c(C)nc4n3CC3CC3)n(C)c12 — recorded IC50 = ≤ 50 nM
